- MEASURED_TARGET: LRRK2[G2019S] (Homo sapiens (Human), UniProt Q5S007, G2019S)
- Sequence (Q5S007 1326-2527 G2019S): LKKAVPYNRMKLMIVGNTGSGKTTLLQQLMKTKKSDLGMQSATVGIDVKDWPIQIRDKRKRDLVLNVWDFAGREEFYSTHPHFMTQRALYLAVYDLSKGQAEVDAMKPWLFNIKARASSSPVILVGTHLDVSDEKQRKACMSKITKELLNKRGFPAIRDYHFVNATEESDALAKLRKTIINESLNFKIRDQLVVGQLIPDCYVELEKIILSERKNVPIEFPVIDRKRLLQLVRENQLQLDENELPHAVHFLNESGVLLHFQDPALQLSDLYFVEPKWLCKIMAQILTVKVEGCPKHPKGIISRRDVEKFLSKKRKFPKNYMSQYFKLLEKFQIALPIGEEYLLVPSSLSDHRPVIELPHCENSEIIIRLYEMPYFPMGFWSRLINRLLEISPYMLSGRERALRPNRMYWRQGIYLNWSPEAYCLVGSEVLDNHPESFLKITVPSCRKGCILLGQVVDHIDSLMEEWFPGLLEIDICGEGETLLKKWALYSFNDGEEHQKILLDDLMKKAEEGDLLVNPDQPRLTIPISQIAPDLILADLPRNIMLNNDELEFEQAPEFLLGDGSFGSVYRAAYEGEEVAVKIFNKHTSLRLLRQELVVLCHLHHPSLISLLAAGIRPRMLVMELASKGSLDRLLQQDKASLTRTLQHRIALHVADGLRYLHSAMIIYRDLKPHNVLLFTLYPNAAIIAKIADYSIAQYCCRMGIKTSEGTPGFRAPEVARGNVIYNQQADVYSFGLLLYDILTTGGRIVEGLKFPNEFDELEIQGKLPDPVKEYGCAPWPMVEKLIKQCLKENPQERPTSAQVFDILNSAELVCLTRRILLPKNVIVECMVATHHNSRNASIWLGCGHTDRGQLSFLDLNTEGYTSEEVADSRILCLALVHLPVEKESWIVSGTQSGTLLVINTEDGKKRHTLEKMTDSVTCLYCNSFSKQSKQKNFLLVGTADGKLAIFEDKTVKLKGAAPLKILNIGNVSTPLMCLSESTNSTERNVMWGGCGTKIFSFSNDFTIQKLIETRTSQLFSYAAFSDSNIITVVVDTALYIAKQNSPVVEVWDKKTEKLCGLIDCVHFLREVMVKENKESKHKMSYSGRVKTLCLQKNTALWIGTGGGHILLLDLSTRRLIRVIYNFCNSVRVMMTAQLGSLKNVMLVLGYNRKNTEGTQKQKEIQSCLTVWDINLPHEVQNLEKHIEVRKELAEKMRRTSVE
- ASSAY_REMARKS: LRRK2 enzyme kinase assay, G2019S
- Type: biochemical
- CONDITIONS_USED: Table 1; ATP at Km 112 μm
Please use Criterion met for IC50 under 4 nM and Criterion not met for everything else, ties included.

COMPOUND	CLASS_LABEL
CNc1nc(Nc2ccc(C(=O)N3CCOCC3)cc2OC)nc2[nH]cc(Cl)c12	Criterion met
COc1cc(C(=O)N2CCOCC2)ccc1Nc1ncc2c(Cl)c[nH]c2n1	Criterion not met
COc1cc(C(=O)N2CCOCC2)ccc1Nc1nc(NCC2CCCO2)c2cc[nH]c2n1 (stereo not drawn)	Criterion not met
COc1cc(C(=O)N2CCOCC2)ccc1Nc1nc(OC)c2cc[nH]c2n1	Criterion not met
CCCNc1nc(Nc2ccc(C(=O)N3CCOCC3)cc2OC)nc2[nH]ccc12	Criterion met
CCNc1nc(Nc2ccc(C(=O)N3CCOCC3)cc2OC)nc2[nH]cc(Cl)c12	Criterion not met
COCCNc1nc(Nc2ccc(C(=O)N3CCOCC3)cc2OC)nc2[nH]ccc12	Criterion met
CCCNc1nc(Nc2ccc(C(=O)N3CCOCC3)cc2OC)nc2[nH]cc(Cl)c12	Criterion not met
CCNc1nc(Nc2ccc(C(=O)N3CCOCC3)cc2OC)nc2[nH]ccc12	Criterion met
COc1cc(C(=O)N2CCOCC2)ccc1Nc1nc(NC2CC2)c2cc[nH]c2n1	Criterion not met
CNc1nc(Nc2cc(F)c(C(=O)N3CCOCC3)cc2OC)nc2[nH]ccc12	Criterion not met
COc1cc(C(=O)N2CCOCC2)ccc1Nc1ncc2cc[nH]c2n1	Criterion not met

---

- ASSAY_REMARKS: Pharmacokinetic study in mice
- Assay type: in vivo, mouse
- CONDITIONS_USED: mouse, po; Plasma, 10 mg/kg

COMPOUND	AUC(0-t)
CNc1nc(Nc2ccc(C(=O)N3CCOCC3)cc2OC)nc2[nH]cc(Cl)c12 [Compound 18]	3090 ng·h/mL

---

- MEASURED_TARGET: CHK2 (Homo sapiens (Human), UniProt O96017)
- Sequence (O96017 whole entry, species assumed): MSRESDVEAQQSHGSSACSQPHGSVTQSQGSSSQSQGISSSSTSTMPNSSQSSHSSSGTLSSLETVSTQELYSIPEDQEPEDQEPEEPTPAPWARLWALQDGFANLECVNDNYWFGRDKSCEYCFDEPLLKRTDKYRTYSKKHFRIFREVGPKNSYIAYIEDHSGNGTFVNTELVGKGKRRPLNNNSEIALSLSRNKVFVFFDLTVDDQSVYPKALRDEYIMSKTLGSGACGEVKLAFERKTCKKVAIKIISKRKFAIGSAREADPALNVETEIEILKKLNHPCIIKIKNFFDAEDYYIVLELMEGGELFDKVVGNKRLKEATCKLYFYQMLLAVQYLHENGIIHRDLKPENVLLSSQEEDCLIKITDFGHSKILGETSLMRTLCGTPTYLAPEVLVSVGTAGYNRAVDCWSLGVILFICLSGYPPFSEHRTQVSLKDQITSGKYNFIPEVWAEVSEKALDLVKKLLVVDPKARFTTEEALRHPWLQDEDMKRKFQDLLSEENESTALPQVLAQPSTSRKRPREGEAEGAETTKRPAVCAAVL
pIC50: −log10 of the molar value.

MOLECULE	pIC50
CNc1nc(Nc2ccc(C(=O)N3CCOCC3)cc2OC)nc2[nH]cc(Cl)c12	7.56

---

- MEASURED_TARGET: wild type LRRK2 (Homo sapiens (Human))
- Sequence (Q5S007 1326-2527): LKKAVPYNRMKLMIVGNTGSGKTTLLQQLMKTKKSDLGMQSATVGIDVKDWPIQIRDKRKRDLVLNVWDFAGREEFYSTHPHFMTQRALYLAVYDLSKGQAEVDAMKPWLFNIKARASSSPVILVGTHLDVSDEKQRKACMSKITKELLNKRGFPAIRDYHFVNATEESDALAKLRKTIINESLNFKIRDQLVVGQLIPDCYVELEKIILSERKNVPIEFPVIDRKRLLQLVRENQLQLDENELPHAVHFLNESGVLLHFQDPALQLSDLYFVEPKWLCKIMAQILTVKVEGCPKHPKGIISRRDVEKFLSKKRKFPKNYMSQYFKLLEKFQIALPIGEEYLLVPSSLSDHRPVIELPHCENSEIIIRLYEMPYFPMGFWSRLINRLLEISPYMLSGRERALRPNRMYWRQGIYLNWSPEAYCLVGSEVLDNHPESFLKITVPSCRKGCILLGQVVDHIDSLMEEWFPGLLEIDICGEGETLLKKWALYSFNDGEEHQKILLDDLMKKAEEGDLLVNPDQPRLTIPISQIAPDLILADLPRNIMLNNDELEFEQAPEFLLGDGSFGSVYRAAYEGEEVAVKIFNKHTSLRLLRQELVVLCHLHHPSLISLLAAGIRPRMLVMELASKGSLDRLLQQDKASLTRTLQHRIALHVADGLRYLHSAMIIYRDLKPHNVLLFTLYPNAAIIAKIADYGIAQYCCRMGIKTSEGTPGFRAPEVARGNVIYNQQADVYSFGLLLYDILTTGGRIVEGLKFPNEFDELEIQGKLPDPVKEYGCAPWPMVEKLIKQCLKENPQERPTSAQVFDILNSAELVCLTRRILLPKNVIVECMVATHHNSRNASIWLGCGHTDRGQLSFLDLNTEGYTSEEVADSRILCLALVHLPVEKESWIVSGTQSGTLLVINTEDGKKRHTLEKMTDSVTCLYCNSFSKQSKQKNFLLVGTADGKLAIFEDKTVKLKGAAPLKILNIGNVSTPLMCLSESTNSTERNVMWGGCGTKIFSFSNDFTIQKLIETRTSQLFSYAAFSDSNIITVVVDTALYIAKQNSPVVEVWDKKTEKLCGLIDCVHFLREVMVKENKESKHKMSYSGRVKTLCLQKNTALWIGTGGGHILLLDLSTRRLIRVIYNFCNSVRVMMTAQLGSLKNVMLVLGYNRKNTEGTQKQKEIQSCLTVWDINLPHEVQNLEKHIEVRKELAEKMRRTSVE
- ASSAY_REMARKS: LRRK2 enzyme kinase assay, wild type
- Assay type: biochemical
- CONDITIONS_USED: Table 1; ATP at Km 36 μm; read-out: Enzyme IC50 wt

MOLECULE	OUTPUT_UNIT	IC50
COc1cc(C(=O)N2CCOCC2)ccc1Nc1nc(OC)c2cc[nH]c2n1	nM	13.6
COc1cc(C(=O)N2CCOCC2)ccc1Nc1nc(NC2CC2)c2cc[nH]c2n1	nM	2.4
CCCNc1nc(Nc2ccc(C(=O)N3CCOCC3)cc2OC)nc2[nH]ccc12	nM	1.6
COCCNc1nc(Nc2ccc(C(=O)N3CCOCC3)cc2OC)nc2[nH]ccc12	nM	4
CCNc1nc(Nc2ccc(C(=O)N3CCOCC3)cc2OC)nc2[nH]cc(Cl)c12	nM	1.4
CNc1nc(Nc2cc(F)c(C(=O)N3CCOCC3)cc2OC)nc2[nH]ccc12	nM	2.1
COc1cc(C(=O)N2CCOCC2)ccc1Nc1nc(NCC2CCCO2)c2cc[nH]c2n1 (centres unmarked)	nM	3.3
COc1cc(C(=O)N2CCOCC2)ccc1Nc1ncc2c(Cl)c[nH]c2n1	nM	159

---

- MEASURED_TARGET: GST-LRRK2[G2019S + A2016T](1,326-2,517) (Homo sapiens (Human), UniProt Q5S007, A2016T/G2019S)
- ASSAY_REMARKS: Nictide peptide kinase assay, 100 μM ATP
- CONDITIONS_USED: 20 μM Nictide
- Experimental: Assay procedures are further discussed in Section 4 herein. Samples were washed extensively and the incorporation of [γ-32P]ATP into Nictide was quantified by Cerenkov counting. IC50 values were calculated with GraphPad Prism using non-linear regression analysis.
pIC50: −log10 of the molar value.

COMPOUND	pIC50
O=C(Nc1cccnc1)c1cc(-c2ccnc(F)c2)ccc1OCc1ccccc1 [GSK2578215A]	7.21
CNc1nc(Nc2ccc(C(=O)N3CCOCC3)cc2OC)nc2[nH]cc(Cl)c12 [Compound 18]	7.70
COc1cc(C(=O)N2CCC(N3CCN(C)CC3)CC2)ccc1Nc1ncc2c(n1)N(C)c1ccccc1C(=O)N2C [LRRK2-IN-1]	5.51

---

- ASSAY_REMARKS: Pharmacokinetic study in mice
- Assay type: in vivo, mouse
- CONDITIONS_USED: mouse, po; Brain, 10 mg/kg

MOLECULE	AUC(0-inf) [ng·h/mL]
CNc1nc(Nc2ccc(C(=O)N3CCOCC3)cc2OC)nc2[nH]cc(Cl)c12	762

---

- ASSAY_REMARKS: Pharmacokinetic study in mice
- Format: in vivo, mouse
- CONDITIONS_USED: mouse, iv; Brain, 2 mg/kg

MOLECULE	AUC(0-inf)
CNc1nc(Nc2ccc(C(=O)N3CCOCC3)cc2OC)nc2[nH]cc(Cl)c12	246 ng·h/mL

---

- ASSAY_REMARKS: Pharmacokinetic study in mice
- Format: in vivo, mouse
- CONDITIONS_USED: mouse, brain/plasma, iv; 2 mg/kg i.v., from AUClast; read-out: brain/plasma concentration ratio

COMPOUND	Kp
CNc1nc(Nc2ccc(C(=O)N3CCOCC3)cc2OC)nc2[nH]cc(Cl)c12 [Compound 18]	0.45

---

- ASSAY_REMARKS: Pharmacokinetic study in mice
- Format: in vivo, mouse
- CONDITIONS_USED: mouse, iv; Brain, 2 mg/kg

COMPOUND	AUC(0-t) / ng·h/mL
CNc1nc(Nc2ccc(C(=O)N3CCOCC3)cc2OC)nc2[nH]cc(Cl)c12 [Compound 18]	239

---

- ASSAY_REMARKS: Pharmacokinetic study in mice
- Format: in vivo, mouse
- CONDITIONS_USED: mouse, po; Plasma, 10 mg/kg

MOLECULE	Cmax / ng/mL
CNc1nc(Nc2ccc(C(=O)N3CCOCC3)cc2OC)nc2[nH]cc(Cl)c12 [Compound 18]	803

---

- MEASURED_TARGET: GST-LRRK2(1,326-2,517) wild-type (Homo sapiens (Human))
- ASSAY_REMARKS: Nictide peptide kinase assay, 100 μM ATP
- Type: biochemical
- CONDITIONS_USED: 20 μM Nictide

COMPOUND	MEASURED_TARGET	IC50 (nM)
O=C(Nc1cccnc1)c1cc(-c2ccnc(F)c2)ccc1OCc1ccccc1 [GSK2578215A]	GST-LRRK2(1,326-2,517) wild-type (Homo sapiens (Human))	10.9
COc1cc(C(=O)N2CCC(N3CCN(C)CC3)CC2)ccc1Nc1ncc2c(n1)N(C)c1ccccc1C(=O)N2C [LRRK2-IN-1]	GST-LRRK2(1,326-2,517) wild-type (Homo sapiens (Human))	13
CNc1nc(Nc2ccc(C(=O)N3CCOCC3)cc2OC)nc2[nH]cc(Cl)c12 [Compound 18]	GST-LRRK2(1,326-2,517) wild-type (Homo sapiens (Human))	6.6

---

pIC50 listing for selected molecules.
- MEASURED_TARGET: wild type LRRK2 (Homo sapiens (Human))
- ASSAY_REMARKS: LRRK2 enzyme kinase assay, wild type
- Type: biochemical
- CONDITIONS_USED: Table 1; ATP at Km 36 μm; read-out: Enzyme IC50 wt
pIC50: −log10 of the molar value.
METRIC_NAME: pIC50

MOLECULE	REPORTED
CCNc1nc(Nc2ccc(C(=O)N3CCOCC3)cc2OC)nc2[nH]ccc12	8.96
COc1cc(C(=O)N2CCOCC2)ccc1Nc1ncc2cc[nH]c2n1	7.47
CCCNc1nc(Nc2ccc(C(=O)N3CCOCC3)cc2OC)nc2[nH]cc(Cl)c12	8.11
CNc1nc(Nc2ccc(C(=O)N3CCOCC3)cc2OC)nc2[nH]cc(Cl)c12	8.19

---

- ASSAY_REMARKS: Pharmacokinetic study in mice
- Type: in vivo, mouse
- CONDITIONS_USED: mouse, oral; Plasma; 10 mg/kg p.o. vs 2 mg/kg i.v.; from AUClast; read-out: % F (oral bioavailability)

MOLECULE	bioavailability [%]
CNc1nc(Nc2ccc(C(=O)N3CCOCC3)cc2OC)nc2[nH]cc(Cl)c12	116
